# Tested on: Staphylococcus aureus
# TEST_NAME: In vitro antibacterial activity against methicillin-sensitive Staphylococcus aureus A15090
# Format: functional
Entries annotated with measured MIC
MEASURED_PARAMETER: MIC (µg/mL)

MOLECULE	VALUE_OBSERVED
CO/C(C)=C1/NC(=O)[C@H]([C@@H](C)O)NC(=O)c2csc(n2)-c2cc(O)c(-c3nc(C(=O)NC(CNCCOCCOCCOCCN)C(N)=O)cs3)nc2-c2csc(n2)[C@@H]2COC(=O)c3c4c5c(cccc5n3O)COC(=O)[C@@H](O[C@H]3C[C@](C)(O)[C@H](N(C)C)[C@H](C)O3)[C@@H](OC4)[C@H](NC(=O)c3csc1n3)c1nc(cs1)C(=O)N2 (stereo partly specified)	1
CO/C(C)=C1/NC(=O)[C@H]([C@@H](C)O)NC(=O)c2csc(n2)-c2cc(O)c(-c3nc(C(=O)NC(CN(C)CCC(=O)Nc4ccncc4)C(N)=O)cs3)nc2-c2csc(n2)[C@@H]2COC(=O)c3c4c5c(cccc5n3O)COC(=O)[C@@H](O[C@H]3C[C@](C)(O)[C@H](N(C)C)[C@H](C)O3)[C@@H](OC4)[C@H](NC(=O)c3csc1n3)c1nc(cs1)C(=O)N2 (stereo partly specified)	0.5
CNCCN(C)CC(NC(=O)c1csc(-c2nc3c(cc2O)-c2nc(cs2)C(=O)N[C@@H]([C@@H](C)O)C(=O)N/C(=C(\C)OC)c2nc(cs2)C(=O)N[C@@H]2c4nc(cs4)C(=O)N[C@@H](COC(=O)c4c5c6c(cccc6n4O)COC(=O)[C@@H](O[C@H]4C[C@](C)(O)[C@H](N(C)C)[C@H](C)O4)[C@H]2OC5)c2nc-3cs2)n1)C(N)=O (stereo partly specified)	0.06
CO/C(C)=C1/NC(=O)[C@H]([C@@H](C)O)NC(=O)c2csc(n2)-c2cc(O)c(-c3nc(C(=O)NC(CN(C)CCCNc4ccncc4)C(N)=O)cs3)nc2-c2csc(n2)[C@@H]2COC(=O)c3c4c5c(cccc5n3O)COC(=O)[C@@H](O[C@H]3C[C@](C)(O)[C@H](N(C)C)[C@H](C)O3)[C@@H](OC4)[C@H](NC(=O)c3csc1n3)c1nc(cs1)C(=O)N2 (stereo partly specified)	1
CO/C(C)=C1/NC(=O)[C@H]([C@@H](C)O)NC(=O)c2csc(n2)-c2cc(O)c(-c3nc(C(=O)NC(CN(C)CCN(C)C)C(N)=O)cs3)nc2-c2csc(n2)[C@@H]2COC(=O)c3c4c5c(cccc5n3O)COC(=O)[C@@H](O[C@H]3C[C@](C)(O)[C@H](N(C)C)[C@H](C)O3)[C@@H](OC4)[C@H](NC(=O)c3csc1n3)c1nc(cs1)C(=O)N2 (stereo partly specified)	0.06
CNCC(NC(=O)c1csc(-c2nc3c(cc2O)-c2nc(cs2)C(=O)N[C@@H]([C@@H](C)O)C(=O)N/C(=C(\C)OC)c2nc(cs2)C(=O)N[C@@H]2c4nc(cs4)C(=O)N[C@@H](COC(=O)c4c5c6c(cccc6n4O)COC(=O)[C@@H](O[C@H]4C[C@](C)(O)[C@H](N(C)C)[C@H](C)O4)[C@H]2OC5)c2nc-3cs2)n1)C(N)=O (stereo partly specified)	2

The origin of these recorded values is ChEMBL document CHEMBL1138025.
